Sequence of the target: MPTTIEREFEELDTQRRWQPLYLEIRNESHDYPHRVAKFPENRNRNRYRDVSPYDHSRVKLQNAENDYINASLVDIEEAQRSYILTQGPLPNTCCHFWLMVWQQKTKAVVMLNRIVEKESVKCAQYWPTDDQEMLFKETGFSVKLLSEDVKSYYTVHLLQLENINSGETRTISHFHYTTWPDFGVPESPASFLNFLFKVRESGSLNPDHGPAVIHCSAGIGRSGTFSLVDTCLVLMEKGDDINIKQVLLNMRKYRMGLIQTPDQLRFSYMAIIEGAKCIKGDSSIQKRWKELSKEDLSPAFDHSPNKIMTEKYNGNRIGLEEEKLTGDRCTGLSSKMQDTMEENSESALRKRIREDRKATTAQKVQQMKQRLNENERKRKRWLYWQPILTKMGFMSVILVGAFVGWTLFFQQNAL
Threshold 5 µM: IC50 strictly smaller gives 1.0, otherwise 0.0.

IN: Quick check: IC50 of CCCCCCCCCCCCC/C=C/[C@@]12C(=O)O[C@@H](C)[C@@H]1[C@H](C(C)=O)C(C(=O)O)=CC2CCCCCCCCCCCC (stereo not given in full) under 5 µM?
OUT: 1.0

IN: Proceed to CCCCCCCCCCCC/C=C/[C@]12C(=O)O[C@]3(C)O[C@]4(C)OC(=O)C(=C[C@H]1CCCCCCCCCCCC)[C@@H]4[C@@H]32 [Paracaseolide A (13)]
OUT: 0.0

IN: Proceed to `CCCCCCCCCCCC/C=C/[C@@]12C(=O)O[C@@H](C)[C@@H]1[C@H]1C(=C[C@H]2CCCCCCCCCCCC)C(=O)O[C@H]1C`
OUT: 0.0

IN: Proceed to `CCCCCCCCCCCC[C@@H]1C=C2C(=O)O[C@@]3(C)O[C@@]4(C)OC(=O)[C@]1(CO)[C@H]4[C@@H]23`
OUT: 0.0

Okay, now this compound:
IN: Quick check: IC50 of `CCCCCCCCCCCCC/C=C/[C@@]12C(=O)O[C@@H](C)[C@@H]1[C@H](C(C)=O)C(C(=O)O)=C[C@H]2CCCCCCCCCCCC` under 5 µM?
OUT: 1.0

Where do the numbers come from? From BindingDB's records for doi:10.1039/c4ob00214h.
